Hey, just so you know, these numbers are from BigSolDB 2.1.

- CONDITION SET: in ethanol, 296 K
List of solubility (mole fraction) values.

- SMILES NOTATION: "CC(=O)O[C@H]1CC[C@@]2(C)C(=CC[C@@H]3[C@@H]2CC[C@]2(C)C(c4cccnc4)=CC[C@@H]32)C1"
  ASSAY ENDPOINT: "solubility (mole fraction)"
  TEST RESULT: 0.0111

response.value for C[C@]12CC[C@H](O)CC1=CC[C@@H]1[C@@H]2CC[C@]2(C)C(c3cccnc3)=CC[C@@H]12 (field: solubility (mole fraction)) = 0.00102

====

- CONDITION SET: in methanol, 296 K
List of solubility (mole fraction) values.
I only need the number, thanks.

- SMILES NOTATION: "CC(=O)O[C@H]1CC[C@@]2(C)C(=CC[C@@H]3[C@@H]2CC[C@]2(C)C(c4cccnc4)=CC[C@@H]32)C1"
  solubility (mole fraction): 0.00544

With those in mind, consider the next compound.
response.value for C[C@]12CC[C@H](O)CC1=CC[C@@H]1[C@@H]2CC[C@]2(C)C(c3cccnc3)=CC[C@@H]12 (field: solubility (mole fraction)) = 0.000523

====

- CONDITION SET: in acetonitrile, 310 K
List of solubility (mole fraction) values.

- SMILES NOTATION: "CC(=O)O[C@H]1CC[C@@]2(C)C(=CC[C@@H]3[C@@H]2CC[C@]2(C)C(c4cccnc4)=CC[C@@H]32)C1"
  solubility (mole fraction): 0.0027

With those in mind, consider the next compound.
response.value for C[C@]12CC[C@H](O)CC1=CC[C@@H]1[C@@H]2CC[C@]2(C)C(c3cccnc3)=CC[C@@H]12 (field: solubility (mole fraction)) = 6.46e-05

====

- CONDITION SET: in acetone, 310 K
ASSAY ENDPOINT: solubility (mole fraction)
I only need the number, thanks.

response.value for CC(=O)O[C@H]1CC[C@@]2(C)C(=CC[C@@H]3[C@@H]2CC[C@]2(C)C(c4cccnc4)=CC[C@@H]32)C1 (field: solubility (mole fraction)) = 0.0181

====

- CONDITION SET: in acetonitrile, 296 K
ASSAY ENDPOINT: solubility (mole fraction)
I only need the number, thanks.

- SMILES NOTATION: "CC(=O)O[C@H]1CC[C@@]2(C)C(=CC[C@@H]3[C@@H]2CC[C@]2(C)C(c4cccnc4)=CC[C@@H]32)C1"
  solubility (mole fraction): 0.0021

With those in mind, consider the next molecule.
response.value for C[C@]12CC[C@H](O)CC1=CC[C@@H]1[C@@H]2CC[C@]2(C)C(c3cccnc3)=CC[C@@H]12 (field: solubility (mole fraction)) = 4.44e-05

====

- CONDITION SET: in THF, 310 K
ASSAY ENDPOINT: solubility (mole fraction)
I only need the number, thanks.

response.value for C[C@]12CC[C@H](O)CC1=CC[C@@H]1[C@@H]2CC[C@]2(C)C(c3cccnc3)=CC[C@@H]12 (field: solubility (mole fraction)) = 0.00393

====

- CONDITION SET: in acetone, 296 K
ASSAY ENDPOINT: solubility (mole fraction)
I only need the number, thanks.

response.value for CC(=O)O[C@H]1CC[C@@]2(C)C(=CC[C@@H]3[C@@H]2CC[C@]2(C)C(c4cccnc4)=CC[C@@H]32)C1 (field: solubility (mole fraction)) = 0.0128

====

- CONDITION SET: in methanol, 310 K
ASSAY ENDPOINT: solubility (mole fraction)

- SMILES NOTATION: "CC(=O)O[C@H]1CC[C@@]2(C)C(=CC[C@@H]3[C@@H]2CC[C@]2(C)C(c4cccnc4)=CC[C@@H]32)C1"
  ASSAY ENDPOINT: "solubility (mole fraction)"
  TEST RESULT: 0.00648

response.value for C[C@]12CC[C@H](O)CC1=CC[C@@H]1[C@@H]2CC[C@]2(C)C(c3cccnc3)=CC[C@@H]12 (field: solubility (mole fraction)) = 0.000656

====

List of solubility (mole fraction) values.
- CONDITION SET: in isopropanol, 310 K

- SMILES NOTATION: "C[C@]12CC[C@H](O)CC1=CC[C@@H]1[C@@H]2CC[C@]2(C)C(c3cccnc3)=CC[C@@H]12"
  solubility (mole fraction): 0.0015

response.value for CC(=O)O[C@H]1CC[C@@]2(C)C(=CC[C@@H]3[C@@H]2CC[C@]2(C)C(c4cccnc4)=CC[C@@H]32)C1 (field: solubility (mole fraction)) = 0.0145

====

List of solubility (mole fraction) values.
- CONDITION SET: in ethanol, 310 K
I only need the number, thanks.

- SMILES NOTATION: "C[C@]12CC[C@H](O)CC1=CC[C@@H]1[C@@H]2CC[C@]2(C)C(c3cccnc3)=CC[C@@H]12"
  solubility (mole fraction): 0.00126

With those in mind, consider the next compound.
response.value for CC(=O)O[C@H]1CC[C@@]2(C)C(=CC[C@@H]3[C@@H]2CC[C@]2(C)C(c4cccnc4)=CC[C@@H]32)C1 (field: solubility (mole fraction)) = 0.0127
